Reference source: patent US20260193264A1

# SYSTEM: HiBiT-BRM fusion protein in stable HeLa cell line (Homo sapiens, UniProt P51531)
# Construct: expressed in transfected cells
# Sequence (P51531 whole entry, the tested form may be a part): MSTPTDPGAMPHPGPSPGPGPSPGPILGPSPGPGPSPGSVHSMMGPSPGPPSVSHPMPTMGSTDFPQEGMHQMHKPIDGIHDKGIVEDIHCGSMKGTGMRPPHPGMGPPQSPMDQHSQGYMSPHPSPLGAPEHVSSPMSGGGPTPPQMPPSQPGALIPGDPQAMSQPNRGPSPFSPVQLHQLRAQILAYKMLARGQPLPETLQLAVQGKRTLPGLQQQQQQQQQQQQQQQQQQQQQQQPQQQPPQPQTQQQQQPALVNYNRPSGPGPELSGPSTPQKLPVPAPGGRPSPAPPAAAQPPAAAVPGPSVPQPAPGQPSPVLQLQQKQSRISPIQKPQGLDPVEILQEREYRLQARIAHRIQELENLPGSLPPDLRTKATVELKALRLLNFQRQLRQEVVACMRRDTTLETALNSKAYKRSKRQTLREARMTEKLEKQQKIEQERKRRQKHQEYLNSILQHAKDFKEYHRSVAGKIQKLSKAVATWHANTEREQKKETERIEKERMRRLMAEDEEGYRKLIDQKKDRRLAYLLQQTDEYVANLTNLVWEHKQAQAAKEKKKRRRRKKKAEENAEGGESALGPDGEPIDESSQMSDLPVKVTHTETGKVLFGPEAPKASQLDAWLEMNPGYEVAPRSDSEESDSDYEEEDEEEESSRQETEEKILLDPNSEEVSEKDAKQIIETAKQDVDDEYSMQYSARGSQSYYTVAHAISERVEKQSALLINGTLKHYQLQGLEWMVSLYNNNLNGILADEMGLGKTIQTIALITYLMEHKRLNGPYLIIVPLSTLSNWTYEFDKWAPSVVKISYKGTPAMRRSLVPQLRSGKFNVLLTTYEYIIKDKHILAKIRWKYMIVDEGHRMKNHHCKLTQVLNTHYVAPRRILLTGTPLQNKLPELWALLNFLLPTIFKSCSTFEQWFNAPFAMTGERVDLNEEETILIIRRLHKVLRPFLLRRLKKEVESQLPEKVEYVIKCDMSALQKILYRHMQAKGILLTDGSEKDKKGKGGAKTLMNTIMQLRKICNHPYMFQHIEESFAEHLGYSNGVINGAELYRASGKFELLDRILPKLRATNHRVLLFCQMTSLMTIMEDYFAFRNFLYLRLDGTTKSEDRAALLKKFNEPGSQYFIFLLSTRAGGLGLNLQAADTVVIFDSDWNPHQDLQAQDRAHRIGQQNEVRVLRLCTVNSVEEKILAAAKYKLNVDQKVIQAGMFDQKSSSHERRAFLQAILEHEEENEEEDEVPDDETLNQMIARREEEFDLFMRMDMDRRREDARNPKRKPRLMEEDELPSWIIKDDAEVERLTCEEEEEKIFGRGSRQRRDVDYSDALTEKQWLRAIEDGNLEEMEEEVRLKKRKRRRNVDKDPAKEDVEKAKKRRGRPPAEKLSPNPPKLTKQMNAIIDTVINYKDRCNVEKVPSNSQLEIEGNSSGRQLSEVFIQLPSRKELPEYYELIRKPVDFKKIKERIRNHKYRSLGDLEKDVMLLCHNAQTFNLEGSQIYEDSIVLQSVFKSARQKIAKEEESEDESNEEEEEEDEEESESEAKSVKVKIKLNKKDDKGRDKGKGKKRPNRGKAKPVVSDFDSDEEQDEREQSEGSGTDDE
# TEST: HiBiT-BRM cell-based degradation assay (Nano-Glo HiBiT Lytic Detection, 24 h)
# Set-up: scale not given here
# MEASUREMENT_CONTEXT: HeLa HiBiT-BRM cells, read-out: BRM HiBit Degradation IC50
For each of the molecules below, state its DC50.

Give me measured DC50, please, for this molecule: Cc1ncsc1-c1ccc([C@H](C)NC(=O)[C@@H]2C[C@@H](O)CN2C(=O)[C@@H](c2cc(-c3cnc(N4CC(c5ccc6nnc(-c7ccccc7O)cc6c5Cl)C4)nc3)no2)C(C)C)cc1
> 10 nM

# return recorded DC50 for entry COC[C@@H]1CN(c2cc([C@H](C(=O)N3C[C@H](O)C[C@H]3C(=O)N[C@@H](C)c3ccc(-c4scnc4C)cc3)C(C)C)on2)CCN1c1ccc2cc(-c3ccccc3O)nnc2c1
> 10 nM

Return DC50 (reported value) for this molecule: Cc1ncsc1-c1ccc([C@H](C)NC(=O)[C@@H]2C[C@@H](O)CN2C(=O)[C@@H](c2cc(N3CCN4CCN(c5ccc6nnc(-c7ccccc7O)cc6c5)CC4C3)no2)C(C)C)cc1 (some centres unmarked)
< 10 nM

Complete the entry with DC50 for Cc1ncsc1-c1ccc([C@H](C)NC(=O)[C@@H]2C[C@@H](O)CN2C(=O)[C@@H](c2cc(N3CCC(CN4CC(c5ccc6nnc(-c7ccccc7O)cc6c5)C4)CC3)no2)C(C)C)cc1
> 10 nM

Output measured DC50 for this item: Cc1ncsc1-c1ccc([C@H](C)NC(=O)[C@@H]2C[C@@H](O)CN2C(=O)[C@@H](c2cc(N3CC4(CN(c5ccc6nnc(-c7ccccc7O)cc6c5)C4)C3)no2)C(C)C)cc1
< 10 nM

* * *

Exercise: for every item that follows, state its recorded DC50.
# SYSTEM: HiBiT-BRM fusion protein in stable HeLa cell line (Homo sapiens, UniProt P51531)
# Construct: expressed in transfected cells
# TEST: HiBiT-BRM cell-based degradation assay (Nano-Glo HiBiT Lytic Detection, 24 h)
# Parameters: scale not given here
# MEASUREMENT_CONTEXT: HeLa HiBiT-BRM cells, read-out: BRM HiBit Degradation IC50

Identify the reported DC50 for the following entry. Cc1ncsc1-c1ccc([C@H](C)NC(=O)[C@@H]2C[C@@H](O)CN2C(=O)[C@@H](c2cc(N3CC[C@@H](c4ccc5nnc(-c6ccccc6O)cc5c4)C3)no2)C(C)C)cc1 [Compound 73]
< 10 nM

Return value of DC50 for input CC(C)C(C(=O)N1C[C@H](O)C[C@H]1C(=O)NCC12CC(C1)C2)c1cc(N2CC3(CN(c4ccc5cc(-c6ccccc6O)nnc5c4)C3)C2)no1 (some centres unmarked) [Compound 119] , no commentary.
> 10 nM

Return DC50 for the following compound: Cc1ncsc1-c1ccc([C@H](C)NC(=O)[C@@H]2C[C@@H](O)CN2C(=O)[C@@H](c2cc(N3CCN([C@@H]4CCN(c5ccc6cc(-c7ccccc7O)nnc6c5)CC4(F)F)CC3)no2)C(C)C)cc1 [Compound 107]
< 10 nM

Look up and report measured DC50 for this entry: Cc1ncsc1-c1ccc([C@H](C)NC(=O)[C@@H]2C[C@@H](O)CN2C(=O)[C@@H](c2cc(-c3cnc(N4CC(c5cc6nnc(-c7ccccc7O)cc6cc5Cl)C4)nc3)no2)C(C)C)cc1 [Compound 32]
> 10 nM

Annotate the compound Cc1ncsc1-c1ccc([C@H](C)NC(=O)[C@@H]2C[C@@H](O)CN2C(=O)C(C(C)C)n2cc(N3C4CCC3CN(c3ccc5cc(-c6ccccc6O)nnc5c3)C4)nn2)cc1 (some centres unmarked) [Compound 268] with its measured DC50.
> 100 nM
